Task for the reader: assign each of the following molecules its reported pIC50.
system: CEM-SS, a T-cell line; assay: Cytotoxicity by XTT colorimetric assay, CEM-SS cells; type: cell-based; details: second CEM-SS column, read-out: IC50 for indicated cell line CEM-SS
On this scale, pIC50 is minus log10 of a concentration expressed in M (mol/L).

Ask | Name the reported pIC50 value associated with the molecule `CCn1c[n+]([Pt-2]([Cl])([n+]2ccc(C)cc2)[n+]2ccc(C)cc2)c2c(=O)[nH]c(N)nc21`
Reply | 5.70

Ask | Name the reported pIC50 value associated with the molecule Cn1ccc(N)[n+]([Pt-2]([NH2])([Cl])[n+]2cccc3ccccc32)c1=O (stereo not shown)
Reply | 4.48

Ask | Name the reported pIC50 value associated with the molecule CCn1c[n+]([Pt-2]([NH2])([Cl])[n+]2ccsc2)c2c(=O)[nH]c(N)nc21 (stereo not shown)
Reply | 4.61

Ask | Name the reported pIC50 value associated with the molecule CCn1c[n+]([Pt-2]([NH2])([Cl])[n+]2cccc3ccccc32)c2c(=O)[nH]c(N)nc21 (stereo not shown)
Reply | 4.50

Reference for the values: patent US6350740B1
